Biological target: Amine oxidase [flavin-containing] B (Homo sapiens, UniProt P27338)
Sequence (P27338 whole entry): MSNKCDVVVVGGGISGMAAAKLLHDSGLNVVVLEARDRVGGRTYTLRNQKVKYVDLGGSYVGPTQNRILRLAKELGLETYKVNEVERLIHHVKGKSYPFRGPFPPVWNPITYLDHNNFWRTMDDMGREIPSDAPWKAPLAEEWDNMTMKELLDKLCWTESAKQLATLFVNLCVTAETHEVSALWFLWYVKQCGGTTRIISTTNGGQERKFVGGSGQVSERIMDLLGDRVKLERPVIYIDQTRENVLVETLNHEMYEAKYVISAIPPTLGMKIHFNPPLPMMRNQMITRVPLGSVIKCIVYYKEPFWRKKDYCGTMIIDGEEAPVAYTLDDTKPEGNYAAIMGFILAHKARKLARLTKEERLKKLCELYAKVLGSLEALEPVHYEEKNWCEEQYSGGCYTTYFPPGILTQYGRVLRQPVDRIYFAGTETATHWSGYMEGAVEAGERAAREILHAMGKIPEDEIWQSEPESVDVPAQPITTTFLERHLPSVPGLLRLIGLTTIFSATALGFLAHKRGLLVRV
Experiment: biochemical
Format: cell-based
observed_property: Ki (µM)
Use µM as the unit, but write only the number.

Which value of Ki has been reported for `CN(CCCCCCCCCCCCN=C=S)Cc1ccccc1` in the records?
9
